Assay: Determination of the log P values by HPLC (formic acid method)
Type: physicochemical
Conditions: reversed-phase column (C 18), acidic range (pH 3.4), 55° C.
value kind: log P

compound=O=C(Nc1nn(-c2c(F)cccc2F)cc1Cl)c1ccccc1C(F)(F)F measured_result=2.73
compound=O=C(Nc1ccn(-c2ncc(Cl)cc2Cl)n1)c1ccccc1I measured_result=3.06
compound=CC(=O)N(C(=O)c1ccccc1C(F)(F)F)c1ccn(-c2ncc(F)cc2F)n1 measured_result=2.97
compound="O=C(Nc1ccn(-c2ncc(F)cc2F)n1)c1ccccc1OC(F)F [Compound I-1-458]" measured_result=2.53
compound=Cn1nc(C(C)(C)C)c(Cl)c1C(=O)Nc1ccn(-c2ncc(F)cc2F)n1 measured_result=3.89
compound=Cn1nc(C(F)(F)F)c(C(=O)Nc2ccn(-c3ccccc3Cl)n2)c1F measured_result=2.86
compound=O=C(Nc1ccn(-c2c(F)cccc2F)n1)c1ccccc1F measured_result=2.60
compound=Cc1ncccc1C(=O)Nc1ccn(-c2ccccc2Cl)n1 measured_result=1.44
compound=CC1=C(C(=O)Nc2ccn(-c3c(F)cccc3F)n2)SCCO1 measured_result=2.41
compound=Cn1ncc(Br)c1C(=O)Nc1ccn(-c2ncc(F)cc2F)n1 measured_result=2.23
compound=O=C(Nc1ccn(-c2ncccc2Br)n1)c1c(F)cccc1F measured_result=2.13
compound=O=C(Nc1ccn(-c2ccc(F)cn2)n1)c1ccccc1I measured_result=2.78
compound=O=C(Nc1ccn(-c2ccccc2Cl)n1)c1nccnc1Cl measured_result=2.45
compound=O=C(Nc1nn(-c2ccccc2Cl)nc1Cl)c1ccccc1C(F)(F)F measured_result=3.21
compound=O=C(Nc1ccn(-c2c(F)cccc2F)c1)c1occc1I measured_result=2.96
compound=N#Cc1cc(F)ccc1-n1ccc(NC(=O)c2cccnc2Cl)n1 measured_result=1.91
compound=O=C(Nc1ccn(-c2ccccc2Cl)n1)c1sccc1C(F)(F)F measured_result=3.15
compound=O=C(Nc1ccn(-c2c(F)cccc2F)n1)c1snc(Cl)c1Cl measured_result=3.33
